# subjectOfTest: Adenosine receptor A1 (Homo sapiens, UniProt P30542)
# Sequence (P30542 whole entry): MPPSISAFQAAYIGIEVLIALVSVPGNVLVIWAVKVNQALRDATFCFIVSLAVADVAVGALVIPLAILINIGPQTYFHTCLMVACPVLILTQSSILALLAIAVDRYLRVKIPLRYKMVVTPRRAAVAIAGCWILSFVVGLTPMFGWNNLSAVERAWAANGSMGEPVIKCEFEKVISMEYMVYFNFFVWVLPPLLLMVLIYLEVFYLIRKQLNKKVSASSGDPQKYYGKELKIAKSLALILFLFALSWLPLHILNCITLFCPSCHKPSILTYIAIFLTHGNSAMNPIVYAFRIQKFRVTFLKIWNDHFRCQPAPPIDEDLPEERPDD
# experiment: Agonist activity at human recombinant adenosine A1 receptor transfected in CHO cells assessed as inhibition of forskolin-induced adenylyl cyclase activity
parameterMeasured: EC50 (nM)

Here's what some known entries look like.
CCn1nnc([C@H]2O[C@@H](n3cnc4c(N[C@H]5C[C@@H]6CC[C@@H]5C6)nc(Cl)nc43)[C@H](O)[C@@H]2O)n1 (racemic) :: 10.2
CCn1nnc([C@H]2O[C@@H](n3cnc4c(N)nc(Cl)nc43)[C@H](O)[C@@H]2O)n1 :: 19.8

I. CCn1nnc([C@H]2O[C@@H](n3cnc4c(NC5CCCO5)ncnc43)[C@H](O)[C@@H]2O)n1 (stereo not given in full)
II. CCn1nnc([C@H]2O[C@@H](n3cnc4c(Nc5ccc(Cl)cc5F)nc(Cl)nc43)[C@H](O)[C@@H]2O)n1
III. CCn1nnc([C@H]2O[C@@H](n3cnc4c(N[C@H]5C[C@@H]6CC[C@@H]5C6)ncnc43)[C@H](O)[C@@H]2O)n1 (racemic)
Your job: order these 3 records by EC50, ascending. Give the labels in the order specified. III, I, II
